Hey, just so you know, these numbers are from patent US9776972B2.

# tgt: human PRMT8 (Homo sapiens)
# Sequence (Q9NR22 whole entry): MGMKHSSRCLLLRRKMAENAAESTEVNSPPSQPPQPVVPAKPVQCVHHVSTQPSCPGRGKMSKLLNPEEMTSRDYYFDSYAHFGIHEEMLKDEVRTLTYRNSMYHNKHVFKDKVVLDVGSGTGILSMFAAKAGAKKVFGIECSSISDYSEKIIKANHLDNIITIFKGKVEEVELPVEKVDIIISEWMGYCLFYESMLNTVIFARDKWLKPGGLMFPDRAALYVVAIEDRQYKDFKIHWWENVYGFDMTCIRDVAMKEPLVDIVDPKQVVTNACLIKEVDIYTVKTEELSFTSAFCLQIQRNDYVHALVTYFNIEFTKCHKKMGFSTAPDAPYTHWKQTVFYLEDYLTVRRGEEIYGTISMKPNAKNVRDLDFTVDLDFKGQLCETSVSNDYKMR
# assay text: PRMT8 Biochemical Assay (3H-SAM Flashplate, peptide substrate)
# conditions: single experiment or average of multiple experiments
property label: IC50

CN(CCN)Cc1c[nH]nc1-c1ccc(N2CCNCC2)cc1; 2470 nM
CNCCN(C)Cc1c[nH]nc1-c1ccc(CC#N)cc1; 773 nM
CN(CCN)Cc1c[nH]nc1-c1ccc(Oc2cccc(F)c2)cc1; 286 nM
CNCCN(C)Cc1c[nH]nc1-c1cc(F)ccc1F; 1660 nM
CNCCN(C)Cc1cn[nH]c1-c1ccc(C#N)cc1; 89.1 nM
CN(CCN)Cc1c[nH]nc1-c1ccc(Oc2ccccc2)c(F)c1; 346 nM
COc1ccc(Cl)cc1-c1n[nH]cc1CN(C)CCN; 5820 nM
CNCCN(C)Cc1c[nH]nc1-c1cccc(NC(C)=O)c1; 1540 nM
CNCCN(C)Cc1n[nH]cc1-c1ccc(Oc2ccccc2)cc1; 69.3 nM
CN(CCN)Cc1c[nH]nc1-c1ccc(C(F)(F)F)cc1F; 809 nM
